Taken from PubChem BioAssay AID1918991.

- Tested on: 186277-243-T-J2-PDC complex spheroid growth
- assay remarks: Anticancer human tumor 186277-243-T-J2-PDC patient-derived colon adenocarcinoma cell line growth inhibition [AhR]
- measurement context: second compound 3.16 µM; first compound 0.0316 µM; active compounds read low
- Description: Multicellular complex tumor spheroid response to aryl hydrocarbon receptor antagonists in combination with a variety of drugs and investigational agents in selected tumor cell lines […] Compounds. […] If the clinical Cmax for an agent had not been determined, the highest concentration tested was 10 microM (Table 1). […]
measured metric: viability, T/C (%)

molecule	unit abbreviation	value measured
CC1COCCN1c1cc(C2(S(C)(=N)=O)CC2)nc(-c2ccnc3[nH]ccc23)n1 (configuration not stated) + Cc1ccccc1N=Nc1ccc(NC(=O)c2ccnn2C)c(C)c1	%	91.2
O=C(c1cc(Cc2n[nH]c(=O)c3ccccc23)ccc1F)N1CCN(C(=O)C2CC2)CC1 + CC(CO)NC(=O)c1cc(-c2ccc(Cl)cc2)nn(-c2cnn(C)c2)c1=O	%	98.1
O=C(C=Cc1cccc(S(=O)(=O)Nc2ccccc2)c1)NO + Cc1ccccc1N=Nc1ccc(NC(=O)c2ccnn2C)c(C)c1	%	91.5
CC[C@@]1(O)C(=O)OCc2c1cc1n(c2=O)Cc2cc3c(CN(C)C)c(O)ccc3nc2-1 + Cc1ccccc1N=Nc1ccc(NC(=O)c2ccnn2C)c(C)c1	%	107
CC1COCCN1c1cc(-c2ccnn2C)c2ccnc(-c3ccn[nH]3)c2n1 (configuration not stated) + Cc1cncc(-c2nc(NCCc3c[nH]c4ccccc34)c3ncn(C(C)C)c3n2)c1	%	116
CC1COCCN1c1cc(C2(S(C)(=N)=O)CC2)nc(-c2ccnc3[nH]ccc23)n1 (configuration not stated) + Cc1cncc(-c2nc(NCCc3c[nH]c4ccccc34)c3ncn(C(C)C)c3n2)c1	%	105
COc1ccc([C@@H](O)c2cc(-c3ncnc4cc(N5CCOCC5)ccc34)c(F)cc2Cl)nn1 + CC(CO)NC(=O)c1cc(-c2ccc(Cl)cc2)nn(-c2cnn(C)c2)c1=O	%	88.3
Nc1ncn(C2CC(O)C(CO)O2)c(=O)n1 (configuration not stated) + Cc1cncc(-c2nc(NCCc3c[nH]c4ccccc34)c3ncn(C(C)C)c3n2)c1	%	111
CC[C@@]1(O)C(=O)OCc2c1cc1n(c2=O)Cc2cc3c(CN(C)C)c(O)ccc3nc2-1 + CC(CO)NC(=O)c1cc(-c2ccc(Cl)cc2)nn(-c2cnn(C)c2)c1=O	%	24.7
CC[C@@]1(O)C(=O)OCc2c1cc1n(c2=O)Cc2cc3c(CN(C)C)c(O)ccc3nc2-1 + Cc1cncc(-c2nc(NCCc3c[nH]c4ccccc34)c3ncn(C(C)C)c3n2)c1	%	87.4
O=C(C=Cc1cccc(S(=O)(=O)Nc2ccccc2)c1)NO + CC(CO)NC(=O)c1cc(-c2ccc(Cl)cc2)nn(-c2cnn(C)c2)c1=O	%	91.5
Cn1ncnc1C1c2n[nH]c(=O)c3cc(F)cc(c23)NC1c1ccc(F)cc1 (configuration not stated) + CC(CO)NC(=O)c1cc(-c2ccc(Cl)cc2)nn(-c2cnn(C)c2)c1=O	%	76.5
CC1(C)CCC(CN2CCN(c3ccc(C(=O)NS(=O)(=O)c4ccc(NCC5CCOCC5)c([N+](=O)[O-])c4)c(Oc4cnc5[nH]ccc5c4)c3)CC2)=C(c2ccc(Cl)cc2)C1 + Cc1cncc(-c2nc(NCCc3c[nH]c4ccccc34)c3ncn(C(C)C)c3n2)c1	%	110
CC1COCCN1c1cc(-c2ccnn2C)c2ccnc(-c3ccn[nH]3)c2n1 (configuration not stated) + CC(CO)NC(=O)c1cc(-c2ccc(Cl)cc2)nn(-c2cnn(C)c2)c1=O	%	24.2
CC(C)c1c(-c2ccccc2)nc2c(C#N)c[nH]n2c1=O + CC(CO)NC(=O)c1cc(-c2ccc(Cl)cc2)nn(-c2cnn(C)c2)c1=O	%	92.2
Nc1ccccc1NC(=O)c1ccc(CNC(=O)OCc2cccnc2)cc1 + Cc1cncc(-c2nc(NCCc3c[nH]c4ccccc34)c3ncn(C(C)C)c3n2)c1	%	94.1
COc1cc(C2c3cc4c(cc3C(OC3OC5COC(C)OC5C(O)C3O)C3COC(=O)C23)OCO4)cc(OC)c1O (configuration not stated) + Cc1ccccc1N=Nc1ccc(NC(=O)c2ccnn2C)c(C)c1	%	94.8

###

- Test system: 186277-243-T-J2-PDC complex spheroid growth
- assay remarks: Anticancer human tumor 186277-243-T-J2-PDC cell line growth inhibition [AhR]; active means viability on the fitted dose curve at most 10% of control; inactive means the rest;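 also: luminescent signal used as a stand-in for viable cell amount; spheroids exposed to compounds for seven days before the viability read; 100% = DMSO vehicle control wells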
- measurement context: second compound 10 µM; first compound 10 µM
Possible outcomes: 1.0 for active, 0.0 for inactive

molecule	class
COc1cccc2c1C(=O)c1c(O)c3c(c(O)c1C2=O)CC(O)(C(=O)CO)CC3OC1CC(N)C(O)C(C)O1 (stereo not given) + Cc1cncc(-c2nc(NCCc3c[nH]c4ccccc34)c3ncn(C(C)C)c3n2)c1	1.0
Nc1ccn(C2OC(CO)C(O)C2(F)F)c(=O)n1 (stereo not given) + Cc1ccccc1N=Nc1ccc(NC(=O)c2ccnn2C)c(C)c1	0.0
COc1cc(C2c3cc4c(cc3C(OC3OC5COC(C)OC5C(O)C3O)C3COC(=O)C23)OCO4)cc(OC)c1O (stereo not given) + Cc1cncc(-c2nc(NCCc3c[nH]c4ccccc34)c3ncn(C(C)C)c3n2)c1	0.0
COc1cccc2c1C(=O)c1c(O)c3c(c(O)c1C2=O)CC(O)(C(=O)CO)CC3OC1CC(N)C(O)C(C)O1 (stereo not given) + CC(CO)NC(=O)c1cc(-c2ccc(Cl)cc2)nn(-c2cnn(C)c2)c1=O	1.0
NS(=O)(=O)OCC1CC(n2ccc3c(NC4CCc5ccccc54)ncnc32)CC1O (stereo not given) + Cc1cncc(-c2nc(NCCc3c[nH]c4ccccc34)c3ncn(C(C)C)c3n2)c1	1.0
CC1(C)CCC(CN2CCN(c3ccc(C(=O)NS(=O)(=O)c4ccc(NCC5CCOCC5)c([N+](=O)[O-])c4)c(Oc4cnc5[nH]ccc5c4)c3)CC2)=C(c2ccc(Cl)cc2)C1 + Cc1cncc(-c2nc(NCCc3c[nH]c4ccccc34)c3ncn(C(C)C)c3n2)c1	0.0
COc1cc(Nc2ncc3c(n2)-c2ccc(Cl)cc2C(c2c(F)cccc2OC)=NC3)ccc1C(=O)O + Cc1cncc(-c2nc(NCCc3c[nH]c4ccccc34)c3ncn(C(C)C)c3n2)c1	0.0
COc1cccc2c1C(=O)c1c(O)c3c(c(O)c1C2=O)CC(O)(C(=O)CO)CC3OC1CC(N)C(O)C(C)O1 (stereo not given) + Cc1ccccc1N=Nc1ccc(NC(=O)c2ccnn2C)c(C)c1	1.0
NS(=O)(=O)OCC1CC(n2ccc3c(NC4CCc5ccccc54)ncnc32)CC1O (stereo not given) + Cc1ccccc1N=Nc1ccc(NC(=O)c2ccnn2C)c(C)c1	1.0
Nc1ccn(C2OC(CO)C(O)C2(F)F)c(=O)n1 (stereo not given) + CC(CO)NC(=O)c1cc(-c2ccc(Cl)cc2)nn(-c2cnn(C)c2)c1=O	1.0

###

The entries below are paired with their reported viability, T/C.
- Test system: 186277-243-T-J2-PDC complex spheroid growth
- assay remarks: Anticancer human tumor 186277-243-T-J2-PDC cell line growth inhibition [AhR];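 also: luminescent signal used as a stand-in for viable cell amount; spheroids exposed to compounds for seven days before the viability read; 100% = DMSO vehicle control wells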
- measurement context: second compound 0.316 µM; first compound 0.0316 µM; active compounds read low

compound	assay target	viability, T/C [%]
CC(C)c1c(-c2ccccc2)nc2c(C#N)c[nH]n2c1=O + CC(CO)NC(=O)c1cc(-c2ccc(Cl)cc2)nn(-c2cnn(C)c2)c1=O	186277-243-T-J2-PDC complex spheroid growth	99.5
CC1(C)CCC(CN2CCN(c3ccc(C(=O)NS(=O)(=O)c4ccc(NCC5CCOCC5)c([N+](=O)[O-])c4)c(Oc4cnc5[nH]ccc5c4)c3)CC2)=C(c2ccc(Cl)cc2)C1 + Cc1cncc(-c2nc(NCCc3c[nH]c4ccccc34)c3ncn(C(C)C)c3n2)c1	186277-243-T-J2-PDC complex spheroid growth	109
COc1cc(C2c3cc4c(cc3C(OC3OC5COC(C)OC5C(O)C3O)C3COC(=O)C23)OCO4)cc(OC)c1O (stereo not given) + Cc1cncc(-c2nc(NCCc3c[nH]c4ccccc34)c3ncn(C(C)C)c3n2)c1	186277-243-T-J2-PDC complex spheroid growth	119
Nc1ccccc1NC(=O)c1ccc(CNC(=O)OCc2cccnc2)cc1 + CC(CO)NC(=O)c1cc(-c2ccc(Cl)cc2)nn(-c2cnn(C)c2)c1=O	186277-243-T-J2-PDC complex spheroid growth	84.3
COc1cccc2c1C(=O)c1c(O)c3c(c(O)c1C2=O)CC(O)(C(=O)CO)CC3OC1CC(N)C(O)C(C)O1 (stereo not given) + Cc1cncc(-c2nc(NCCc3c[nH]c4ccccc34)c3ncn(C(C)C)c3n2)c1	186277-243-T-J2-PDC complex spheroid growth	110
O=C(c1cc(Cc2n[nH]c(=O)c3ccccc23)ccc1F)N1CCN(C(=O)C2CC2)CC1 + Cc1cncc(-c2nc(NCCc3c[nH]c4ccccc34)c3ncn(C(C)C)c3n2)c1	186277-243-T-J2-PDC complex spheroid growth	108
NS(=O)(=O)OCC1CC(n2ccc3c(NC4CCc5ccccc54)ncnc32)CC1O (stereo not given) + CC(CO)NC(=O)c1cc(-c2ccc(Cl)cc2)nn(-c2cnn(C)c2)c1=O	186277-243-T-J2-PDC complex spheroid growth	91.8
Cn1ncnc1C1c2n[nH]c(=O)c3cc(F)cc(c23)NC1c1ccc(F)cc1 (stereo not given) + Cc1ccccc1N=Nc1ccc(NC(=O)c2ccnn2C)c(C)c1	186277-243-T-J2-PDC complex spheroid growth	107
COc1ccc([C@@H](O)c2cc(-c3ncnc4cc(N5CCOCC5)ccc34)c(F)cc2Cl)nn1 + Cc1cncc(-c2nc(NCCc3c[nH]c4ccccc34)c3ncn(C(C)C)c3n2)c1	186277-243-T-J2-PDC complex spheroid growth	109
CC(C)c1c(-c2ccccc2)nc2c(C#N)c[nH]n2c1=O + Cc1ccccc1N=Nc1ccc(NC(=O)c2ccnn2C)c(C)c1	186277-243-T-J2-PDC complex spheroid growth	103
Cn1ncnc1C1c2n[nH]c(=O)c3cc(F)cc(c23)NC1c1ccc(F)cc1 (stereo not given) + Cc1cncc(-c2nc(NCCc3c[nH]c4ccccc34)c3ncn(C(C)C)c3n2)c1	186277-243-T-J2-PDC complex spheroid growth	121
Nc1ccccc1NC(=O)c1ccc(CNC(=O)OCc2cccnc2)cc1 + Cc1ccccc1N=Nc1ccc(NC(=O)c2ccnn2C)c(C)c1	186277-243-T-J2-PDC complex spheroid growth	106
NS(=O)(=O)OCC1CC(n2ccc3c(NC4CCc5ccccc54)ncnc32)CC1O (stereo not given) + Cc1cncc(-c2nc(NCCc3c[nH]c4ccccc34)c3ncn(C(C)C)c3n2)c1	186277-243-T-J2-PDC complex spheroid growth	104
CC[C@@]1(O)C(=O)OCc2c1cc1n(c2=O)Cc2cc3c(CN(C)C)c(O)ccc3nc2-1 + Cc1cncc(-c2nc(NCCc3c[nH]c4ccccc34)c3ncn(C(C)C)c3n2)c1	186277-243-T-J2-PDC complex spheroid growth	86.2
COc1cccc2c1C(=O)c1c(O)c3c(c(O)c1C2=O)CC(O)(C(=O)CO)CC3OC1CC(N)C(O)C(C)O1 (stereo not given) + Cc1ccccc1N=Nc1ccc(NC(=O)c2ccnn2C)c(C)c1	186277-243-T-J2-PDC complex spheroid growth	161
